Target: H^+ /K^+ ATPase (Sus scrofa, UniProt P19156)
Construct: prepared from the stomach of pig; from tissue; host or cells: pig stomach
Sequence (P19156 2-1034 limits assumed): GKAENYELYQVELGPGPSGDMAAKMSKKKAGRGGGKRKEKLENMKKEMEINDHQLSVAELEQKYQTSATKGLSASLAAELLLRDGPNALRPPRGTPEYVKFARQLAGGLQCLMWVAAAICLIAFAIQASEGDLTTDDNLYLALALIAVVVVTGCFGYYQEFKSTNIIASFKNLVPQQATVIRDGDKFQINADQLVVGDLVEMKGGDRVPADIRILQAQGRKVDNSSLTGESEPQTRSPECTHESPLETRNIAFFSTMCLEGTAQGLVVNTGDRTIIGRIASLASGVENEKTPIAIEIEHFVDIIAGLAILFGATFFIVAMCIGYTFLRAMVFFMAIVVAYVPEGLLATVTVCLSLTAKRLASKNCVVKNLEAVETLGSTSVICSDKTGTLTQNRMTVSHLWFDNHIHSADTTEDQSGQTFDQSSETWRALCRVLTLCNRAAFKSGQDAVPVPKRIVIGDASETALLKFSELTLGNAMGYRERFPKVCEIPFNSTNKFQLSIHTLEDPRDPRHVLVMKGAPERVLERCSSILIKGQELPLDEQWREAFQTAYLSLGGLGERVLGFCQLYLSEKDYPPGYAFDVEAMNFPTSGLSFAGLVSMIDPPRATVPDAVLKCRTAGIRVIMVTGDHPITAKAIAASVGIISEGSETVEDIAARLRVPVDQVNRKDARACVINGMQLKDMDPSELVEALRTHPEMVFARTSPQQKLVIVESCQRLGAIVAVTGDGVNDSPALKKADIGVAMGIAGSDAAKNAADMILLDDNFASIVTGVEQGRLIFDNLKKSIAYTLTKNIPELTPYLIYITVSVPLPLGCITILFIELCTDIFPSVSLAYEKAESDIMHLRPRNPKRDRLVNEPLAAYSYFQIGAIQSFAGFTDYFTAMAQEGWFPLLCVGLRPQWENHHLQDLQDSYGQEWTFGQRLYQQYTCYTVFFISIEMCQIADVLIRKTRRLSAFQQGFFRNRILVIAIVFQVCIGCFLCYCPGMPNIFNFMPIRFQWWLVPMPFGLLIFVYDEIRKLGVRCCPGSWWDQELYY
Sequence (P18434 whole entry partner): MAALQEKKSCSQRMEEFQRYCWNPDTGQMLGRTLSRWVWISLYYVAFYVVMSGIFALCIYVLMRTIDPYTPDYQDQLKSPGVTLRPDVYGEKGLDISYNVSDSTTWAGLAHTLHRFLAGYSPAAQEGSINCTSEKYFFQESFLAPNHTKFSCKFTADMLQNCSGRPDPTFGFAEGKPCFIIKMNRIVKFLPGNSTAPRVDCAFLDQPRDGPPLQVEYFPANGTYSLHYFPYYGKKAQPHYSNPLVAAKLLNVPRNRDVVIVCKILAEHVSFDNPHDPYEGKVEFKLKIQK
Experiment: H^+ /K^+ ATPase Inhibitory Activity Assay
Format: biochemical
Settings: 10 μg/ml; pig stomach enzyme, 37° C., pH 6.2
The threshold is inclusive: inhibition at 10 µg/mL of exactly 80% counts as 1 (yes); values below receive 0 (no).

Observe how each entry below is paired with its result.
> print(dat)
                                   compound  assignedcategory
1  CN1CC[C@H]2c3cc(C4CCCN(C(=O)OCc5ccccc5)CCc5c4[nH]c4ccccc54)ccc3N(C)[C@H]2C1 (stereo partly shown)            0 (no)
2  CCN1CCC2c3cc(C(O)c4c(CCc5ccccn5)c5ccccc5n4S(=O)(=O)c4ccc(C)cc4)ccc3N(CC)C2C1 (stereo not shown)            0 (no)
3  CCN1CCC2c3cc(C(C)c4[nH]c5ccccc5c4CCN(Cc4ccccc4)C(=O)OCc4ccccc4)ccc3N(CC)C2C1 (stereo not shown)           1 (yes)
4  CCN1CCC2c3cc(C4CCCN(C(=O)OCc5ccccc5)CCc5c4[nH]c4ccccc54)ccc3N(CC)C2C1 (stereo not shown)           1 (yes)

stdin: Is reported inhibition at 10 µg/mL greater than or equal to 80% here: CCN1CCC2c3cc(C(OCc4ccccc4)c4c(CCN(Cc5ccccc5)Cc5ccccc5)c5ccccc5n4C)ccc3N(CC)C2C1 (stereo not shown)
stdout: 0 (no)
